- Test system: antibodies in sera from SARS patients (sera 1a, 1b, 2, 6, 37, 62, London, SARS-yellow, SARS-green)
- Assay type: binding, human
- Design: unit not given here
Listed here are sequences together with their documented Binding of serum 6 to looped/cyclic peptides of protein N of SARS-CoV Urbani.
READOUT_TYPE: Binding of serum 6 to looped/cyclic peptides of protein N of SARS-CoV Urbani

SEQUENCE_CHAIN: KHIDAYKTFPPTEPK
MEASURED: 0.1
--
SEQUENCE_CHAIN: DNGPQSNQRSAPRIT
MEASURED: 0.2
--
SEQUENCE_CHAIN: SSRSRGNSRNSTPGS
MEASURED: 0.1
--
SEQUENCE_CHAIN: RGNSRNSTPGSSRGN
MEASURED: 0.4
--
SEQUENCE_CHAIN: AEASKKPRQKRTATK
MEASURED: 0.1
--
SEQUENCE_CHAIN: NQLESKVSGKGQQQQ
MEASURED: 0.3
--
SEQUENCE_CHAIN: DQDLIRQGTDYKHWP
MEASURED: 0.1
--
SEQUENCE_CHAIN: QQGQTVTKKSAAEAS
MEASURED: 0.3
--
SEQUENCE_CHAIN: EASLPYGANKEGIVW
MEASURED: 0.2
--
SEQUENCE_CHAIN: DRLNQLESKVSGKGQ
MEASURED: 0.4
--
SEQUENCE_CHAIN: RPKQRRPQGLPNNTA
MEASURED: 0.3

====

- System: antibodies in sera from SARS patients (sera 1a, 1b, 2, 6, 37, 62, London, SARS-yellow, SARS-green)
- Type: binding, human
- Design: unit not given here
Listed here are sequences together with their documented Binding of serum 1b to looped/cyclic peptides of protein N of SARS-CoV Urbani.
READOUT_TYPE: Binding of serum 1b to looped/cyclic peptides of protein N of SARS-CoV Urbani

SEQUENCE_CHAIN: ASKKPRQKRTATKQY
MEASURED: 0.1
//
SEQUENCE_CHAIN: TQAFGRRGPEQTQGN
MEASURED: 0.2
//
SEQUENCE_CHAIN: GPQSNQRSAPRITFG
MEASURED: 0.2
//
SEQUENCE_CHAIN: RGPEQTQGNFGDQDL
MEASURED: 0.4
//
SEQUENCE_CHAIN: NQNGGRNGARPKQRR
MEASURED: 0.1
//
SEQUENCE_CHAIN: TEPKKDKKKKTDEAQ
MEASURED: 0.1

====

- Test system: rabbit serum obtained by immunizing a rabbit with the SARS-CoV strain Frankfurt 1
- Format: binding
- Design: unit not given here
The label is 1.0 for Rabbit serum linear peptides below 0.4 and 0.0 for Rabbit serum linear peptides equal to or exceeding 0.4.

SEQUENCE_CHAIN: LEQWNLVIGFLFLAW
ANSWER_LABEL: 1.0
//
SEQUENCE_CHAIN: PKEITVATSRTLSYY
ANSWER_LABEL: 0.0
//
SEQUENCE_CHAIN: IVGLMWLSYFVASFR
ANSWER_LABEL: 1.0
//
SEQUENCE_CHAIN: MVQTCTPNVTINCQD
ANSWER_LABEL: 0.0
//
SEQUENCE_CHAIN: LGRCDIKDLPKEITV
ANSWER_LABEL: 1.0

These entries and their values trace back to patent US20070128217A1.
